Data credit: PubChem BioAssay AID1220

# assayedTarget: Mannose-6-phosphate isomerase (Homo sapiens)
# assayDetails: MPI inhibition at elevated mannose 6-phosphate – biochemical, fluorescence intensity, high mannose 6-phosphate, primary screen (AID 1220)
# experimentalConditions: recombinant PMI enzyme, coupled fluorescence intensity; at 20 µM
Out of some 190,000 compounds screened, about 1,300 (0.68%) were called active. Cut-off read from the data, not from the text of the source: active = inhibition above about 50%; inactive = the rest. Many of the other results were omitted from the sample, so actives are more common in it than they were.
Reply using exactly one outcome from active, inactive

**Q:** # fetch the recorded call for O=c1[nH]c(SCC2CCCCO2)nc2ccccc12 (centres undefined) here
**A:** inactive

---

# assayedTarget: Mannose-6-phosphate isomerase (Homo sapiens) (UniProt P34949)
# Sequence (P34949 whole entry, looked up): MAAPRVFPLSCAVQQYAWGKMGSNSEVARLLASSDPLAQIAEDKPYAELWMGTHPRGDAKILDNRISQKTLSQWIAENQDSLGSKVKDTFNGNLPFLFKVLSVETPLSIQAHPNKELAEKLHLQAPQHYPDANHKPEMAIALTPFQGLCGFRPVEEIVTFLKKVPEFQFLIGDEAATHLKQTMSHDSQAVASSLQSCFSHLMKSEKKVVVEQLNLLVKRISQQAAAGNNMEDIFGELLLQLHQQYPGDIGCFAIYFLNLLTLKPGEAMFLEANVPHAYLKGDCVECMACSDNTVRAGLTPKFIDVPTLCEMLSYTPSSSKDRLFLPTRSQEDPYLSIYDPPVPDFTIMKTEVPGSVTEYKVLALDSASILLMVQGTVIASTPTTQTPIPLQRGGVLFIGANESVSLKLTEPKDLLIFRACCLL
# assayDetails: MPI inhibition at elevated mannose 6-phosphate – biochemical, fluorescence intensity, high mannose 6-phosphate, primary screen (AID 1220)
# experimentalConditions: recombinant PMI enzyme, coupled fluorescence intensity; at 20 µM; hits give high values
The campaign covered roughly 190,000 compounds. About 1,300 (0.68%) were called active. This excerpt belongs to a sample that is enriched for actives.
reportedProperty: inhibition (%)
Please reply with the bare figure in % and do not write the unit itself.

Previously resolved entries follow.
compound: CCn1c(SCC(=O)N2CCCCC2C)nc2ccsc2c1=O (stereo unspecified)
recordedNumber: -3.6

compound: CCOC(=O)c1ccc(Cn2cnc3ccccc3c2=O)cc1
recordedNumber: 11.7

compound: O=C(NCc1cccnc1)c1ccc(COc2ccccc2Br)o1
recordedNumber: 11.6

compound: Nc1cc(Cl)ccc1Oc1ccccc1
recordedNumber: -2.5

compound: COc1ccc(Oc2ccccc2C#N)cc1
recordedNumber: 4.7

Next, consider the following compound.
**Q:** Provide measured inhibition value, entry: O=C(Nc1cccc(S(=O)(=O)Nc2ccccc2Cl)c1)c1ccc(Cl)nc1
**A:** 7.3

---

# assayedTarget: Mannose-6-phosphate isomerase (Homo sapiens)
# assayDetails: MPI inhibition at elevated mannose 6-phosphate – biochemical, fluorescence intensity, high mannose 6-phosphate, primary screen (AID 1220)
# experimentalConditions: recombinant PMI enzyme, coupled fluorescence intensity; at 20 µM; hits give high values
In all, about 190,000 compounds went through this assay and about 1,300 (0.68%) were called active. This excerpt belongs to a sample that is enriched for actives.
reportedProperty: inhibition (%)
State just the number; it will be interpreted in %.

As a guide, the following entries are already answered.
compound: Cc1cccc[n+]1C1C(c2ccccc2)C(C#N)=C(C(=C=[N-])C#N)NC1(O)C1CC1 (centres undefined)
assayedTarget: Mannose-6-phosphate isomerase (Homo sapiens)
inhibition (%): 50.8
--
compound: CC(C)(C)CC(C)(C)c1ccc(O)c(CN2CCN(CCC#N)CC2)c1
assayedTarget: Mannose-6-phosphate isomerase (Homo sapiens)
inhibition (%): 4.7
--
compound: CC(C)(C)NC(=O)C(c1ccc(OCC(N)=O)cc1)N(C(=O)c1cccnc1)C1CC1 (centres undefined)
assayedTarget: Mannose-6-phosphate isomerase (Homo sapiens)
inhibition (%): -7.4

The record that follows has no inhibition shown yet.
**Q:** Look up and report measured inhibition for this entry: CC(=O)Nc1ccc(N=Cc2ccc(OCc3ccccc3)cc2)cc1
**A:** 10.3

---

# assayedTarget: Mannose-6-phosphate isomerase (Homo sapiens)
# assayDetails: MPI inhibition at elevated mannose 6-phosphate – biochemical, fluorescence intensity, high mannose 6-phosphate, primary screen (AID 1220)
# experimentalConditions: recombinant PMI enzyme, coupled fluorescence intensity; at 20 µM
Out of some 190,000 compounds screened, about 1,300 (0.68%) were called active. Rule as the data show it: active = inhibition above about 50%; inactive = the rest. Only a selection was taken, and actives are over-represented in it overall.
Result category, one only: active, inactive

For orientation, consider the following solved cases.
compound: CN(C)C(=O)c1ccc2c(c1)n(C)c(=O)n2C
qualitativeLabel: inactive
--
compound: COCCN1C(=O)c2oc3ccccc3c(=O)c2C1c1ccc(O)c(OC)c1 (stereo unspecified)
qualitativeLabel: inactive
--
compound: O=[N+]([O-])c1ccc(N2CCOCC2)cc1SCc1ccco1
qualitativeLabel: active
--
compound: CCCC(=O)NC(c1cccs1)c1cc(Cl)c2cccnc2c1O (stereo unspecified)
qualitativeLabel: inactive

**Q:** What did the test return for CC(C)(C)NC(=O)COC(=O)Cc1ccc(Cl)cc1 ?
**A:** inactive

**Q:** Hi team, can someone confirm the assay call for CC(=O)NC(c1cccs1)c1cc([N+](=O)[O-])c2cccnc2c1O (stereo unspecified) ?
**A:** inactive

**Q:** Entry COc1cc(NC(=O)CSc2c3c(nc4ccccc24)CCC3)cc(OC)c1OC : call = ?
**A:** inactive

**Q:** What did the test return for Cc1c(O)ccc(NS(=O)(=O)c2ccccc2)c1C ?
**A:** inactive

**Q:** Query: recorded result category for CCCC12CN3CCN(CC(C3)/C1=N\NC(=O)c1ccccc1Cl)C2 in this test
**A:** inactive

**Q:** Which outcome was entered for the compound CC(C)(C)P(=O)(CO)c1ccccc1 (stereo unspecified) in this test?
**A:** inactive

**Q:** Give the logged outcome of this assay for the following compound: COc1ccc(CCn2nnnc2C(CC(C)C)N2CCN(c3ncccn3)CC2)cc1OC (stereo unspecified)
**A:** inactive

**Q:** Kindly provide the recorded test outcome for the following compound: COc1cc(SC)ccc1C(=O)N1CCN(c2ccc(O)cc2)CC1
**A:** active
